target under test: HBV Cp (Hepatitis B virus genotype D subtype ayw, UniProt P03146, R150C)
Format: binding

# compound, Cp binding in TSA, in words
data = [
    ("Cc1c(C(=O)Nc2cc(F)c(F)c(Cl)c2)sc(N)c1C#N [Compound 14d]", "loss of binding affinity"),
    ("Cc1c(C(=O)Nc2ccccc2)sc(-n2cnnn2)c1C(N)=O [Compound 12k]", "completely inactive"),
    ("Cc1c(C(=O)Nc2ccccc2)sc(N)c1C#N [Compound 14a]", "loss of binding affinity"),
    ("Cc1c(C(=O)Nc2ccccc2)sc(NC(=O)N2CCOCC2)c1C(N)=O [Compound 12a]", "completely inactive"),
]

Data credit: paper PMC6362850
